Measurement target: PfHPPD Evo 41 SEQ ID No 29 (Pseudomonas sp., UniProt P80064, A172V/A339Q/A53E/D148E/D45N/E105D/E287Q/E300V/E334P/F143Y/G286D/G335W/H150N/H254A/H63N/I158V/I187A/I249V/K338A/K92N/L18F/N24G/N280D/S245T/S257K/S301E/T205S/V65I)
Sequence (P80064 1-354 with tags or gaps with the stated changes limits assumed): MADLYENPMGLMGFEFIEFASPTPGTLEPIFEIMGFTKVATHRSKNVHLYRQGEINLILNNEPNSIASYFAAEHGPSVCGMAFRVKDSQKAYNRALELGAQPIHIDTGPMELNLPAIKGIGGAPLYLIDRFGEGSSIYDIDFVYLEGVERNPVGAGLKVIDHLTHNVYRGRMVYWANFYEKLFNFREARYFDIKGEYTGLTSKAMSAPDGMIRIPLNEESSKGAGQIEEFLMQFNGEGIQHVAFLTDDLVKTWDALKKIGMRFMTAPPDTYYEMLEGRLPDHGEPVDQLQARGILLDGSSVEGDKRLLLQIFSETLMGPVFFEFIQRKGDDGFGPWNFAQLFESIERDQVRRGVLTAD
Test description: biochemical
Readout label: pIC50
Note: pIC50 values are expressed as the negative base-10 logarithm of concentration in M.

pIC50 recorded for this compound, Cc1nnc(NC(=O)c2ccc(C(F)(F)F)c(S(C)(=O)=O)c2C)o1 , is 5.30

Input Cc1nnc(NC(=O)c2ccc(C(F)(F)F)c(S(C)(=O)=O)c2Cl)o1 . Output pIC50: 5.10

get_value(item= Cc1nnc(NC(=O)c2ccc(C(F)(F)F)nc2C)o1 , readout=pIC50) returns 3.60

// sample Cc1nnc(NC(=O)c2ccc(C(F)(F)F)c([S+](C)[O-])c2C)o1 (stereo not drawn) , its pIC50 was 5.00

Short answer for Cc1nnc(NC(=O)c2ccc(C(F)(F)F)c([S+](C)[O-])c2Cl)o1 (stereo not drawn) : pIC50 was 4.70

Per the record, Cc1c(C(=O)Nc2nnc(C3CC3)o2)ccc(C(F)(F)F)c1[S+](C)[O-] (stereo not drawn) has pIC50 of 3.80

Reported pIC50 for Cc1nnc(NC(=O)c2ccc(C(F)(F)F)c(OCCF)c2Cl)o1 was 4.50

The compound listed as Cc1nnc(NC(=O)c2ccc(C(F)(F)F)c(-n3cccn3)c2Cl)o1 shows pIC50 equal to 4.90

* * *

Measurement target: Avena HPPD SEQ ID No 2 (Avena sativa)
Sequence (A0ACD5V6K6 entry or part of it): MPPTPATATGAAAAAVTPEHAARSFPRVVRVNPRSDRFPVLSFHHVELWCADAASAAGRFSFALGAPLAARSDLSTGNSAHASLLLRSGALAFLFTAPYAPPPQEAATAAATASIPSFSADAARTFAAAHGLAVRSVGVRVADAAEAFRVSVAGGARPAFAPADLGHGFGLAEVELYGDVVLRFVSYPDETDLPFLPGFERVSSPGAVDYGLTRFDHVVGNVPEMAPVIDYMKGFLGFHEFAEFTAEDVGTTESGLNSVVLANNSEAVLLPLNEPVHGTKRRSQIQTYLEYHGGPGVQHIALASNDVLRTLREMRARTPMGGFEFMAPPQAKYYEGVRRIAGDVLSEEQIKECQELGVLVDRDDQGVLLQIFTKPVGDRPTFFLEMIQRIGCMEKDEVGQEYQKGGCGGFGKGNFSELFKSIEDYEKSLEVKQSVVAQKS
Test description: Determination of HPPD activity in presence of N-(1,3,4-Oxadiazol-2-yl)arylcarboxamides (pI50)
Condition parameters: negative log of molar concentration; inhibitor 0.1 to 100 μM; room temperature; 600 μM HPP
Readout label: pIC50
Scale explanation: pIC50 corresponds to minus log10 of a concentration expressed in moles per litre.

Record summary for Cc1nnc(NC(=O)c2ccc(C(F)(F)F)c(-n3cccn3)c2Cl)o1 : reported pIC50 = 5.80

Record summary for Cc1nnc(NC(=O)c2ccc(C(F)(F)F)c([S+](C)[O-])c2C)o1 (stereo not drawn) : reported pIC50 = 5.40

// Cc1nnc(NC(=O)c2ccc(C(F)(F)F)nc2C)o1 : pIC50 value = 4.80

Reported pIC50 of Cc1nnc(NC(=O)c2ccc(C(F)(F)F)c(OCCF)c2Cl)o1 : 5.80

Input Cc1nnc(NC(=O)c2ccc(C(F)(F)F)c(S(C)(=O)=O)c2C)o1 . Output pIC50: 5.80

Kindly note the recorded pIC50 for COCc1nnc(NC(=O)c2ccc(C(F)(F)F)c(S(C)(=O)=O)c2C)o1 , which is 5.50

Input Cc1nnc(NC(=O)c2ccc(C(F)(F)F)c(S(C)(=O)=O)c2Cl)o1 . Output pIC50: 5.80

For record Cc1nnc(NC(=O)c2ccc(C(F)(F)F)c([S+](C)[O-])c2Cl)o1 (stereo not drawn) the listed pIC50 is 5.40

Sure, the documented pIC50 for Cc1c(C(=O)Nc2nnc(C3CC3)o2)ccc(C(F)(F)F)c1[S+](C)[O-] (stereo not drawn) is 4.40
